List of fold change (FC) values.
- System under test: Tubulin (Homo sapiens) (UniProt P68371+Q9H4B7+P0DPH7+P68366+Q13509+Q71U36+P04350+Q3ZCM7+P07437+P68363+Q9BQE3+Q6PEY2+Q13885+Q9BVA1+Q9BUF5)
- Assay method text: Stabilization of microtubules in human QBI293 cells assessed as fold change in acetylated tubulin levels at 1 uM after 4 hrs by ELISA relative to cevipabulin
- Format: cell-based
Measure name: fold change (FC)

1) CC(Nc1c(-c2c(F)cc(F)cc2F)c(Cl)nc2ncnn12)C(F)F (centres undefined)    0.3
2) CC(C)Nc1c(-c2c(F)cc(F)cc2F)c(Cl)nc2ncnn12    0.15
3) N#Cc1ccc(-c2c(Cl)nc3ncnn3c2N2CCCCCC2)c(F)c1    0.55
4) CO[C@H]1C[C@H]2CC[C@@H](C1)N2c1c(-c2c(F)cc(C#N)cc2F)c(Cl)nc2ncnn12    0.64
5) Fc1cc(F)c(-c2c(Cl)nc3ncnn3c2NC2CCCC2)c(F)c1    0.27
6) CC(C)CNc1c(-c2c(F)cc(F)cc2F)c(Cl)nc2ncnn12    0.38
7) C[C@H](Nc1c(-c2c(F)cc(C(F)(F)F)cc2F)c(Cl)nc2ncnn12)C(F)(F)F    0.13
8) C[C@H](Nc1c(-c2c(F)cc([S@@+]([O-])CCCN(C)C)cc2F)c(Cl)nc2ncnn12)C(F)(F)F    0.34
9) CO[C@H]1C[C@H]2CC[C@@H](C1)N2c1c(-c2c(F)cc(F)cc2F)c(Cl)nc2ncnn12    0.54
